B1: Caulobacter ParB omega fusion; a variant is named by its letters at X, in order, B8GW30 (parent)
chain: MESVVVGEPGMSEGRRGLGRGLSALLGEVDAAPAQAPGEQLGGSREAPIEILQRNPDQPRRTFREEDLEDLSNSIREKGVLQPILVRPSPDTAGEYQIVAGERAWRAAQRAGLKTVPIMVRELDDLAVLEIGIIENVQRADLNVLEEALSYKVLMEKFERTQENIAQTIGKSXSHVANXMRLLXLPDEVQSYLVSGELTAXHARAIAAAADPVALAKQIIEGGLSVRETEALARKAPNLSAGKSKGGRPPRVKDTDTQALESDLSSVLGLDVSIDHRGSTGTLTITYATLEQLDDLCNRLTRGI

Variants of: B1
Test: one-hybrid fitness for binding parS DNA (scaled: cognate 1, non-cognate 0); higher = stronger binding
Settings: with parS DNA site
Over roughly 81,000 sequences, “one-hybrid fitness for binding parS DNA” has its median near -0.17; the highest 2% begin near 0.51. The list comes from a sample in which the highest values are over-represented; it also holds close analogues and randomly drawn sequences.
Below, each of the variants is paired with its reported one-hybrid fitness for binding parS DNA value.

The examples below pair each entry with its known result.
| Variant Descriptor | one-hybrid fitness for binding parS DNA |
| --- | --- |
| VPIN | ≤ 0.2 |
| RHCM | ≤ 0.2 |
| RHHQ | ≤ 0.2 |
| RQVP | ≤ 0.2 |
| RQKQ | ≤ 0.2 |
| RQVH | ≤ 0.2 |
| RHCK | ≤ 0.2 |
| RHDG | 0.917 |

Field one-hybrid fitness for binding parS DNA (entry `RQKF` ) reads 0.328

Field one-hybrid fitness for binding parS DNA (entry `RQKT` ) reads 0.819

Field one-hybrid fitness for binding parS DNA (entry `QMQR` ) reads ≤ 0.2
